method description: soluble on expression in E. coli; label from the status in PepcDB or PDB records
measured endpoint: soluble on expression in E. coli

The cases that follow already have their soluble on expression in E. coli on record.
INSERT INTO measurements (sequence_content, measured_endpoint, result) VALUES
  ('MNNSAFTFQTLHPDTIMDALFEHGIRVDSGLTPLNSYENRVYQFQDEDRRRFVVKFYRPERWTADQILEEHQFALQLVNDEVPVAAPVAFNGQTLLNHQGFYFAVFPSVGGRQFEADNIDQMEAVGRYLGRMHQTGRKQLFIHRPTIGLNEYLIEPRKLFEDATLIPSGLKAAFLKATDELIAAVTAHWREDFTVLRLHGDCHAGNILWRDGPMFVDLDDARNGPAVQDLWMLLNGDKAEQRMQLETIIEAYEEFSEFDTAEIGLIEPLRAMRLVYYLAWLMRRWADPAFPKNFPWLTGEDYWLRQTATFIEQAKVLQEPPLQLTPMY', 'soluble on expression in E. coli', 'soluble'),
  ('MARHVFLPPLSVHRHRPHPLGVCGFESFQTLHPRKRAARPDSRPLYELCRHTCLQDFPKIRHPLCRHGTQQHHYARFGAPAPMAAYEKCGGTRRRTSRRQPPFRTRPATQIRLRMAVPPPTYWAEYSTDRLNKEKKNNKPHFVFCTVSHLRRLKGHDVLLTAFARALAQCPQLRLNIGGSGQEEQRLKQQAADLGITHAVTFLGALQPEAVLDLMRNSDAFVLASRTETFGVVYIEALSQGLPVIATRCGGAESIVSDGNGYLVPVDDDDALADALIKMCEHHSDFEPARLRENCLNEFGENAVIGRLIGIFRQAIAEYGKKIPVKYSGLTKIRTRRRSRRQYK', 'soluble on expression in E. coli', 'not soluble'),
  ('MELWGRMLWALLSGPGRRGSTRGWAFSSWQPQPPLAGLSSAIELVSHWTGVFEKRGIPEARESSEYIVAHVLGAKTFQSLRPALWTQPLTSQQLQCIRELSSRRLQRMPVQYILGEWDFQGLSLRMVPPVFIPRPETEELVEWVLEEVAQRSHAVGSPGSPLILEVGCGSGAISLSLLSQLPQSRVIAVDKREAAISLTHENAQRLRLQDRIWIIHLDMTSERSWTHLPWGPMDLIVSNPPYVFHQDMEQLAPEIRSYEDPAALDGGEEGMDIITHILALAPRLLKDSGSIFLEVDPRHPELVSSWLQSRPDLYLNLVAVRRDFCGRPRFLHIRRSGP', 'soluble on expression in E. coli', 'soluble'),
  ('TMEEELEPVVRHLVEQRWPFRLHATYNESITRMLDVFEKVNRDIPFNGLPWFFDHAETITPQNIERVRALGGGIAIQDRMAFQGEYFVDRYGAKAAEQTPPIKRMLEMGVPVGAGTDATRVSSYNPWTSLYWLVSGKTVGGMELYPEGLSRDTALQLFTQGSAWFSSEQGKKGQIKVGQLADLAALSLDFFSVDEEAIKGIESVLTIVDGKVVYGAGEFDKFGPPQVPVLPEWSPVTKVPGHWRVGTPSLAAAVHQCSGPCGVHAHSHEKARHSSVPVNDFQGFWGALGCSCFA', 'soluble on expression in E. coli', 'not soluble');

Please report soluble on expression in E. coli for the following sequence: MKILHTSDWHIGKTLYGHKRYDEFEAFFSWLVETIEQEQVDVLLIAGDIFDTSTPGNRSQQLYYRFLHRVAASACRHVVIIAGNHDSPSFLSAPRELLRALDVHVTGSLSGNPADEILVLHDPKGDAELIVCAVPHLRDRDIRTAEAGESMEDKSRKLVEGIRDHYAEVINLARLQRTALSSSIPIIAMGHLFVAGGQTVEGDGVRELYVGSLAHVPAGIFPPDIDYLALGHLHVPQRVNGSSVMRYSGSPLPIGFGEADQEKSVCLIEFNRQ not soluble
